# Tested on: MDA-MB-435
# Method: NCI tumour cell line growth inhibition, 48 h
Where a SMILES comes first, the peptide text is derived from it. [ ]: non-standard residue; d: D form. The star is where a group is joined. AllylGly = C=CC[CH](N)C(=O)O; Boc = CC(C)(C)OC(=O)*; OtBu = CC(C)(C)O*
Quantity: TGI

Q. Need TGI of CC(=O)OCC1OC(n2c3c(c(-c4ccco4)c(C#N)c2=S)CCC3)C(OC(C)=O)C(OC(C)=O)C1OC(C)=O (stereo not given) , thanks.
A. > 100 µM

Q. Need TGI of O=[N+]([O-])c1ccc(C2=NOC(c3ccccc3F)N2C23CC4CC(CC(C4)C2)C3)cc1 (stereo not given) , thanks.
A. > 100 µM

Q. Need TGI of O=C(O)C1CCCN1Cc1cc2ccccc2c2ccccc12 (stereo not given) , thanks.
A. > 100 µM

Q. Need TGI of Cc1ccc(-c2c(C#N)c(S)n(NS(=O)(=O)c3ccc(C)cc3)c(=O)c2C#N)cc1 , thanks.
A. 52.8 µM

Q. Need TGI of C=CCC(NC(=O)C(CC(=O)OC(C)(C)C)NC(=O)OC(C)(C)C)C(=O)OC (stereo not given) (Boc-Asp(OtBu)-[AllylGly]-OMe; configuration not given here) , thanks.
A. > 91.3 µM

* * *

# TGI per entry
# Test system: DMS 273 small cell lung
# Method: NCI tumour cell line growth inhibition, 48 h

{"Molecule": "O=C(CC1(O)C(=O)Nc2ccccc21)c1ccccc1Cl (centres undefined)", "TGI": "> 100 µM"}

Continue with the molecule presented below.
Q. Identify the measured TGI of N#CC(C(=O)/C(=N\Nc1nc(=S)[nH]n1N)C(C#N)c1ccc(Cl)cc1)c1ccc(Cl)cc1 (centres undefined) for DMS 273 small cell lung.
A. > 100 µM

* * *

# Test system: MCF7 breast
# Method: NCI tumour cell line growth inhibition, 48 h; in the data active means GI50 below about 0.43 µM; inactive means the rest
// allowed return values: true (1) = active, false (0) = inactive

{"Compound": "COc1ccc(C(=O)c2ccc(OC)c(OC)c2OC)cc1", "Group": "false (0)"}

Next compound, please.
Q. Recorded call for C=C(C)[C@@H]1CC[C@]2(C)[C@H](C(=O)C=C3[C@@H]4C[C@](C)(C(=O)N5CCN(C)CC5)CC[C@]4(C)CC[C@]32C)[C@@]1(C)CCC#N ?
A. false (0)

* * *

# System: A498 renal
# Method: NCI tumour cell line growth inhibition, 48 h
# GI50 per entry

In the examples that follow, each entry is paired with its recorded GI50.
{"Structure String": "CC(=O)Nc1ccc(Sc2ccc([N+](=O)[O-])o2)cc1", "GI50": "12.2 µM"}
{"Structure String": "CC(C)CCOc1ccc(-c2n[nH]c(C(F)(F)F)c2-c2cncc(C#N)c2)c(O)c1", "GI50": "1.75 µM"}
{"Structure String": "O=C1C(Br)=CC2(C=C1Br)CCN=c1c2c(O)c2nc3ccccc3c3ccnc1c23", "GI50": "1.6 µM"}
{"Structure String": "CN1CCCNc2c(c(=O)c2=O)NCCCN(C)CCCNc2c(c(=O)c2=O)NCCCN(C)CCCNc2c(c(=O)c2=O)NCCCN(C)CCCNc2c(c(=O)c2=O)NCCCN(C)CCCNc2c(c(=O)c2=O)NCCCN(C)CCCNc2c(c(=O)c2=O)NCCCN(C)CCCNc2c(c(=O)c2=O)NCCC1", "GI50": "2.72 µM"}
{"Structure String": "CC(C)[C@@]12C[C@@H](OC(=O)[C@H]3CO3)[C@@](C)(O1)[C@@H]1CC[C@@H](C)[C@H]1[C@@H]2OC(=O)/C=C/c1ccccc1", "GI50": "0.217 µM"}

Q. Need GI50 of CCN(CC)CCCNc1cccc2c(SCc3ccccc3)ccnc12 , thanks.
A. 1.92 µM

Q. Need GI50 of C=C(C)[C@@H]1CC[C@]2(C)[C@H](C(=O)C=C3[C@@H]4C[C@](C)(C(=O)N5CCN(C)CC5)CC[C@]4(C)CC[C@]32C)[C@@]1(C)CCC#N , thanks.
A. 7.77 µM
